Listing: z-score of selected compounds
- experiment-notes: PSAC antagonists in infected red cells, primary screen, cell-based, P. falciparum Indochina, OD700, 18 h (AID 1157)
- experimental-context: P. falciparum Indochina infected erythrocytes, osmotic lysis OD700, 18 h; higher = more signal, called active from +8 up or from −8 down
The answer should be a number; do not append a unit.

// known answers, use as guide
C[C@H](c1ccccc1)N1C(=O)[C@H]2[C@@H]3C(=CC[C@H]2C1=O)C(=O)[C@H]1O[C@H]1[C@H]3O : -0.0165
C[C@@H](c1ccccc1)N1C(=O)[C@H]2[C@H]3[C@H](O)[C@H](O)CC(=NOC[C@@H](O)COCc4ccco4)[C@@H]3CC[C@H]2C1=O : -0.138
CC(=O)O[C@H]1C2=C(C(=O)[C@@H]3O[C@@H]31)[C@H]1C(C)O[C@@H]2[C@@]23C(=O)[C@@H]4O[C@@H]4[C@@H](O)C2=CO[C@H](C)[C@@H]13 (some centres undefined) : -0.12
CCCNC(=O)OC[C@H]1O[C@H](CCON=C2[C@H]3CCn4c(=O)n(-c5ccccc5)c(=O)n4[C@H]3[C@H](O)[C@@H]3O[C@H]23)C=C[C@@H]1Oc1ccc(OC)cc1 : 0.268
COCCCNC(=O)[C@]1(Cc2ccccc2)N=C(c2ccc(OCCCO)cc2)O[C@@H]1c1ccccc1 : 2.34
CO[C@H]1O[C@H](CO)[C@@H](OC(=O)Nc2ccc3c(c2)OCO3)[C@H](OC(=O)Nc2ccccc2-c2ccccc2)[C@@H]1OC(=O)Nc1ccccc1-c1ccccc1 : 1.14

z-score for `C=C(CCCC)C(=O)CC[C@@H](OC(C)=O)c1cccc(OCCO)c1` ?
0.822

z-score for `CC(C)=CCCC(C)=CCON=C1[C@H]2CCn3c(=O)n(Cc4cc5c(cc4Cl)OCO5)c(=O)n3[C@H]2[C@H](O)[C@@H]2O[C@H]12` ?
0.38

z-score for `CCCNC(=O)OC[C@H]1O[C@H](CCON=CC[C@@H]2C=C[C@H](OC(C)=O)[C@@H](COC(C)=O)O2)C=C[C@@H]1Oc1ccc(OC)cc1` ?
0.392

###

- experiment-notes: binders from COS7 lysate, DM2A8 probe, primary screen, torsin A project, cell lysate, small-molecule microarray, fluorescence 635/667 (AID 1065)
- experimental-context: higher = more signal, COS7 lysate expressing mutant human TOR1A
metric-name: composite z-score
The answer should be a number; do not append a unit.

CC(C)[Si]1(C(C)C)O[C@@H](c2ccccc2)c2cc(C3CC3)nc(-c3ccccc3)c21 : -0.598
CCCCCN1CC=CC23O[C@@H]4C=CCOC(=O)[C@@H]4[C@H]2C(=O)N(CCCCCCO)[C@@H]3C1=O (some centres undefined) : -0.859

composite z-score for `O=C1[C@H]2[C@H]3[C@H](O)[C@H](O)CC(=NO[C@@H]4O[C@H](CO)[C@@H](O)[C@H](O)[C@H]4O)[C@H]3CC[C@H]2C(=O)N1C1CCCCC1` ?
1.49

composite z-score for Cc1cc2c(nc1C)CCCN2CC(O)CN1CCN(C)CC1 (centres undefined) ?
0.382

###

- experiment-notes: adipocyte viability effects, profiling panel, cell-based, 3T3-L1 adipocytes, calcein-AM fluorescence, 48 h, basal (AID 1163); further: test concentration not given here
- experimental-context: 3T3-L1 adipocytes viability, higher = more signal
metric-name: z-score
The answer should be a number; do not append a unit.

CO[C@H]1COC(=O)[C@@H]2CCCN2C(=O)[C@@H](C)COC(=O)CC=C[C@@H]1C : -0.142

z-score for `CC(C)OC(=O)C=C1C[C@@H](c2ccc(C#N)cc2)O[C@@H](c2ccc(C#N)cc2)O1` ?
0.538

z-score for `CCCCC(=C=CC[C@H](O)c1ccccc1OCCO)C[C@H](O)COCc1ccccc1` ?
0.0907

z-score for `COC(=O)[C@H](C)NC(=O)[C@@H](C)CO` ?
0.945

z-score for CCOC(=O)[C@H](CC(C)C)NC(=O)CCC1CC(OC(=O)NCCc2ccc(F)cc2)CC2(CCCC(COC(=O)NCc3ccccc3)O2)O1 (stereo partly specified) ?
0.0596

z-score for `O=C1C[C@@H](O)[C@@H](O)[C@@H]2[C@@H]3C(=O)N(Cc4ccc5c(c4)OCO5)C(=O)[C@@H]3CC[C@@H]12` ?
0.797

z-score for `C=CCOC(=O)[C@H]1[C@@H]2C(=O)O[C@@H](c3ccccc3)[C@@H](c3ccccc3)N2[C@@H](c2ccc(OCCOC(=O)[C@H]3C[C@H]4C(=O)N[C@@H](Cc5ccccc5)C(=O)N4[C@H]3c3ccc(O)cc3)cc2)[C@]12C(=O)Nc1ccccc12` ?
0.689

###

Listing: z-score of selected compounds
- experiment-notes: A549 lung cancer cell viability effects, profiling panel, resazurin fluorescence, 24 h, PK04 Diversity Set (AID 1171); further: test concentration not given here
- experimental-context: higher = more signal, called active from +8 up or from −8 down
The answer should be a number; do not append a unit.

// known answers, use as guide
CCN1C(=O)[C@H]2[C@H]3[C@H](O)[C@H](O)CC(=NOCc4ccccc4)[C@@H]3CC[C@H]2C1=O : -0.725
CCCNC(=O)OC[C@H]1O[C@H](CCON=CC[C@@H]2C=C[C@H](OC(C)=O)[C@@H](COC(C)=O)O2)C=C[C@@H]1Oc1ccc(OC)cc1 : 0.248
O=C(NN=C1C[C@@H](O)[C@@H](O)[C@@H]2[C@@H]3C(=O)N(c4cccc(Oc5ccccc5)c4)C(=O)[C@@H]3CC[C@@H]12)OCc1ccccc1 : 0.413
CO[C@@H]1COC(=O)CC=C[C@@H](C)[C@H](OC)COC(=O)[C@H](COCc2ccccc2)NC(=O)CC=C[C@H]1C : -0.27
C=CC[C@@H]1C=C[C@H](ON=Cc2ccc(C(=O)N3[C@H](c4ccc(C)cc4)[C@@H](C)CC[C@H]3C(=O)OC)cc2)[C@@H](CO)O1 : -0.299

z-score for `COCCCNC(=O)[C@@]1(CCS(=O)(=O)c2ccccc2)N=C(c2ccc(OCCCO)cc2)O[C@H]1c1ccccc1` ?
0.486

z-score for `CCOC(=O)CCN1C(=O)[C@H]2[C@H]3[C@H](O)[C@H](O)CC(=NNC(=O)OCc4ccc(OC)cc4)[C@@H]3CC[C@H]2C1=O` ?
-0.807

###

- target-of-assay: Fibroblast growth factor 10 (Homo sapiens)
- experiment-notes: FGF10 binders on small-molecule microarrays, primary screen, biochemical, small-molecule microarray, 635 nm fluorescence (AID 1102)
- experimental-context: FGF10 binding, fluorescence 635 nm, higher = more signal
Listing: composite z-score of selected compounds
The answer should be a number; do not append a unit.

CCOC(=O)[C@H](Cc1ccccc1)NC(=O)CCC1CC(OC(=O)NCc2ccc3c(c2)OCO3)CC2(CCCC(COC(=O)NCC(c3ccccc3)c3ccccc3)O2)O1 (some centres not stated) : 0.525
O=C1O[C@@H](c2ccccc2)[C@@H](c2ccccc2)N2[C@@H](c3ccc(OCCO)cc3)[C@]3(C(=O)Nc4ccc(C#CCCO)cc43)[C@@H](C(=O)N3CCCCCCC3)[C@H]12 : 1.22
C[C@H](c1ccccc1)N1C(=O)[C@H]2[C@H]3[C@H](O)[C@H](O)CC(=O)[C@@H]3CC[C@H]2C1=O : 0.615
COc1ccc(O[C@H]2C=C[C@@H](c3ccccc3)O[C@@H]2COC(=O)CCC(C)=NO[C@@H](C)c2cc(-c3c(C)cc(C)cc3C)no2)cc1 : -1.05

composite z-score for `CCOC(=O)C1=CC[C@H]2C(=O)N(CC)C(=O)[C@@H]12` ?
1.07

composite z-score for `CCOC(=O)C[C@H]1[C@H](OC(=O)c2cc3ccccc3oc2=O)[C@@H](NC(=O)c2ccc3ccccc3n2)c2cc(OCCCO)ccc2N1C(=O)c1ccccc1` ?
1.4

composite z-score for `CC(C)C[C@@H]1NC(=O)[C@H]2C[C@@H](C(=O)O)[C@@H](c3ccc(O)cc3)N2C1=O` ?
0.0112

###

- experiment-notes: S. cerevisiae RM11-1a growth modifiers, primary screen, strain RM11-1a, OD600, basal, 24 h (AID 1177);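 further: cultures grown under basal conditions with no added stressor; test concentration not given here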
- experimental-context: OD600, 24 h, higher = more signal, called active from +8 up or from −8 down
Activity calls are given as the source filed them.
Listing: z-score of selected molecules

// known answers, use as guide
CCOC(=O)[C@H](Cc1ccccc1)NC(=O)CCC1CC(OC(=O)NCc2ccc3c(c2)OCO3)CC2(CCCC(COC(=O)NCc3cccc(C(F)(F)F)c3)O2)O1 (some centres not stated) : 0.234 (inactive)
CCOC(=O)NN=C1C[C@@H](O)[C@@H](O)[C@@H]2[C@@H]3C(=O)N(CC)C(=O)[C@@H]3CC[C@@H]12 : -0.823 (inactive)
O=C1[C@H]2[C@H]3[C@H](O)[C@H](O)CC(=NO[C@@H]4O[C@H](CO)[C@@H](O)[C@H](O)[C@H]4O)[C@H]3CC[C@H]2C(=O)N1Cc1ccccc1 : -1.1 (inactive)
CCN1C(=O)[C@H]2[C@H]3[C@H](O)[C@H](O)CC(=NOC(C)CN4CCCCc5nc(C)c(C)cc54)[C@@H]3CC[C@H]2C1=O (some centres not stated) : 0.002 (inactive)
CC(C)[Si]1(C(C)C)O[C@@H](c2ccccc2)c2cc(C3CC3)nc(-c3ccccc3)c21 : -0.403 (inactive)
C[C@H]1CC[C@@H](C(=O)O)N[C@@H]1c1ccc(C#CCN(C)C)cc1 : -0.191 (inactive)

Now for another entry.
z-score for `CC(C)NC(=O)[C@@]1(c2ccc([N+](=O)[O-])cc2)CC(=O)N(CC23CC4CC(CC(C4)C2)C3)[C@@H]1c1ccc(CO)cc1I` ?
0.835 (inactive)
